Listing: change in vivo at 180 mg/kg/day of selected compounds
system: plasma cholesterol; test: Hypocholesterolemic activity, plasma cholesterol in mice fed test compound in diet; type: in vivo, OF1 strain mice; conditions: Mus musculus, feed or water, 240 h, read-out: Plasma Cholesterol (% Control), 0.1% compound in food, 10 days, ca. 180 mg/kg daily, mouse
Readout: change in vivo at 180 mg/kg/day (%)

[[record]]
compound = "CCOP(=O)(OCC)C(NCc1ccc(OC)c(OC)c1)c1cc(C(C)(C)C)c(O)c(C(C)(C)C)c1 (stereo not shown) [Compound 39]"
reported = -4

[[record]]
compound = "COP(=O)(OC)C(NCCc1ccc(Cl)cc1)c1cc(C(C)(C)C)c(O)c(C(C)(C)C)c1 (stereo not shown) [Compound 16]"
reported = -28

[[record]]
compound = "CCOP(=O)(OCC)C(NC1CCCCC1)c1cc(C(C)(C)C)c(O)c(C(C)(C)C)c1 (stereo not shown) [Compound 65]"
reported = 7

[[record]]
compound = "CCOP(=O)(OCC)C(NC(c1ccccc1)c1ccccc1)c1cc(C(C)(C)C)c(O)c(C(C)(C)C)c1 (stereo not shown) [Compound 32]"
reported = -12

[[record]]
compound = "CCOP(=O)(OCC)C(NCc1cc(C(C)(C)C)c(O)c(C(C)(C)C)c1)c1cc(C(C)(C)C)c(O)c(C(C)(C)C)c1 (stereo not shown) [Compound 40]"
reported = -25

[[record]]
compound = "CCOP(=O)(OCC)C(NCCCc1ccccc1)c1ccc(O)c([N+](=O)[O-])c1 (stereo not shown) [Compound 77]"
reported = -3

[[record]]
compound = "CCOP(=O)(OCC)C(Nc1ccc(O)c(C)c1)c1cc(C(C)(C)C)c(O)c(C(C)(C)C)c1 (stereo not shown) [Compound 5]"
reported = 2

